Values from PubChem BioAssay (NCI)

- System: A498 renal
- EXPERIMENTAL PROTOCOL: NCI tumour cell line growth inhibition, 48 h
MEASURED QUANTITY: TGI

> print(dat)
                                   molecule  target.under.test  endpoint.value
1  COC(=O)C(C(=O)C(=O)Nc1ccccc1C(C)=O)c1nc2ccc(Cl)cc2[nH]c1=O (stereo unspecified)         A498 renal        > 100 µM
2  COc1cc(C#N)cc(OC)c1OCCOCCOc1c(OC)cc(C#N)cc1OC         A498 renal        > 100 µM
3  Cc1cccc(N=Nc2c(C)nn(C(=O)CC(=O)Nc3ccccc3)c2C)c1         A498 renal        > 100 µM
4  COc1ccccc1C(C1=C(O)COC1=O)c1cc2c(cc1OC(C)=O)OCO2 (stereo unspecified)         A498 renal        > 100 µM
5          COc1cc(-c2cc(=O)c3ccccc3o2)ccc1N         A498 renal        > 100 µM
6               O=C1CCCC2=C(N1)C(=O)C=CC2=O         A498 renal       > 70.4 µM

###

- System: NCI-H460 lung
- EXPERIMENTAL PROTOCOL: NCI tumour cell line growth inhibition, 48 h
MEASURED QUANTITY: TGI

> print(dat)
                               given.smiles  endpoint.value
1  CSC(=NCCCCN=C(NS(=O)(=O)c1ccc(Cl)cc1)SC)NS(=O)(=O)c1ccc(Cl)cc1        > 100 µM
2       CCOC(=O)n1[nH]c(=O)n(-c2ccccc2)c1=O        > 100 µM
3   Cc1ccc2c(=O)cc(-c3cccc4ccccc34)[nH]c2n1        > 100 µM
4  COC(=O)C(=O)c1c2ccccc2n2ccc3c4ccccc4[nH]c3c12         > 10 µM
5                     CC#CS(=O)(=O)c1ccccc1           38 µM
6  CCOC(=O)C(Cc1c2ccccc2cc2ccccc12)(NC(C)=O)C(=O)OCC        > 100 µM

###

- Tested on: NCI-H460 lung
MEASURED QUANTITY: GI50

> print(dat)
                               given.smiles  target.under.test  endpoint.value
1  COc1ccc(-c2nn(-c3cccc(NC(=O)Nc4ccc(Cl)c(C(F)(F)F)c4)c3)cc2-c2ccncc2)cc1Cl      NCI-H460 lung         1.99 µM
2  c1cc(OCCN2CCCCCC2)ccc1CNc1ccc2nc(CCC3CCCCC3)[nH]c2c1      NCI-H460 lung         2.06 µM
3  COc1cc(/C=C/C(=O)c2ccc(Nc3ncnc4ccccc34)cc2)cc(OC)c1      NCI-H460 lung         14.2 µM
4   Clc1cc(Cl)c(Cl)c(-c2nc(-c3cccnc3)cs2)c1      NCI-H460 lung         37.7 µM

###

- System: PC-3 prostate
- EXPERIMENTAL PROTOCOL: NCI tumour cell line growth inhibition, 48 h
*1 amine or outer side, *2 acyl side, *3 side chain or, on linkers, in order; H or OH if unused. Where a SMILES comes first, the peptide text is derived from it. Bridges are numbered along the chain shown (N, C = ends). Roman numbers before positions name the chains, in order. [ ]: non-standard residue; d: D form. Actinocin(9to1) = Cc1c2oc3c(C)ccc(C(=O)[*:1])c3nc-2c(C(=O)[*:2])c(N)c1=O; X48 = O=C1CC(C(=O)[*:2])N([*:1])C1; NMeV = CN[CH](C(=O)O)C(C)C; Sar = CNCC(=O)O
Recorded TGI, one value per entry.

COMPOUND	TGI
OCC1NCC(O)C(O)C1O (stereo unspecified)	> 100 µM
COc1cc(C#N)cc(OC)c1OCCOCCOc1c(OC)cc(C#N)cc1OC	> 100 µM
O=c1[nH]c(-c2cccc(F)c2)nc2ccccc12	> 100 µM
Clc1ccc(Nc2nc(Cl)c3[nH]cnc3n2)cc1Cl	66.2 µM
Cc1c2oc3c(C)ccc(C(=O)NC4C(=O)NC(C(C)C)C(=O)N5CC(=O)CC5C(=O)N(C)CC(=O)N(C)C(C(C)C)C(=O)OC4C)c3nc-2c(C(=O)NC2C(=O)NC(C(C)C)C(=O)N3CC(=O)CC3C(=O)N(C)CC(=O)N(C)C(C(C)C)C(=O)OC2C)c(N)c1=O (stereo unspecified) (I: TV[X48][Sar][NMeV] / II: TV[X48][Sar][NMeV]; ester I:1-I:C, II:1-II:C; linker I:N-II:N via Actinocin(9to1); configuration not given here)	> 1 µM
Nc1cc2c3c(cccc3c1)C(=O)N(c1ccc(OCCN3CCCCC3)cc1)C2=O	32.9 µM

###

- Tested on: HOP-92 NSCLC
- EXPERIMENTAL PROTOCOL: NCI tumour cell line growth inhibition, 48 h
MEASURED QUANTITY: TGI

> print(dat)
                                   compound  endpoint.value
1  CC(=O)CCNc1ccc(-c2cc(-c3ccc(N(C)C)cc3)nc3ccc4ccccc4c23)cc1        > 100 µM
2  COC(=O)C1=NN2c3ccccc3C(=O)OCCC2(C)C1 (stereo not drawn)        > 100 µM
3  CCOC(=O)/C(=C\NCC(OCC)OCC)c1nc2ccccc2[nH]1        > 100 µM

###

- System: NCI-H23 lung
- EXPERIMENTAL PROTOCOL: NCI tumour cell line growth inhibition, 48 h
MEASURED QUANTITY: TGI

> print(dat)
                                   compound  endpoint.value
1  CCOC(=O)C(Cc1ccccc1)NC(=O)c1ccc(N=NN(C)C)cc1 (stereo not given)        > 100 µM
2  COc1ccc(CNc2nc3cc(C(F)(F)F)ccc3nc2C(=O)O)cc1OC        > 100 µM
3  COc1cc(/C=C/C(=O)c2ccc(Nc3ncnc4ccccc34)cc2)cc(OC)c1         38.2 µM
4  O=c1c2ccccc2nc(-c2ccc(Br)cc2)n1NC1OC(CO)C(O)C(O)C1O (stereo not given)        > 100 µM
5            O=C1c2ccccc2-c2nc3ccc(O)cc3n21        > 100 µM

###

- Tested on: TK-10 renal
- EXPERIMENTAL PROTOCOL: NCI tumour cell line growth inhibition, 48 h
MEASURED QUANTITY: TGI

> print(dat)
                               given.smiles  measured.quantity  endpoint.value
1  O=S(=O)(O)c1cccc2c(N=Nc3c(O)ccc4ccccc34)cccc12                TGI        > 100 µM
2  Cc1cc(O)c(C(c2cccnc2)c2c(O)cc(C)[nH]c2=O)c(=O)[nH]1                TGI        > 100 µM
3             O=C(CCN1CC2CCC(CC2)C1)c1cccs1                TGI         23.3 µM

###

Recorded TGI, one value per entry.
- Tested on: NCI/ADR-RES ovarian
- EXPERIMENTAL PROTOCOL: NCI tumour cell line growth inhibition, 48 h
MEASURED QUANTITY: TGI

> print(dat)
                                   compound    target.under.test  endpoint.value
1   CC(=O)OCCCCn1cnc2nc(Nc3ccccc3)nc(Cl)c21  NCI/ADR-RES ovarian        > 100 µM
2  N#CC1=C(S)N(C2OC(CO)C(O)C(O)C2O)C(c2ccccc2)=CC1c1ccccc1 (stereo unspecified)  NCI/ADR-RES ovarian        > 100 µM
3     O=C(Nc1n[nH]c2nc(-c3ccco3)ccc12)C1CC1  NCI/ADR-RES ovarian         > 25 µM
4  O=C(O)C(CSC(c1ccccc1)(c1ccccc1)c1ccccc1)N=Cc1cccs1 (stereo unspecified)  NCI/ADR-RES ovarian         63.8 µM
5  CCOC(=O)/C(=C/c1ccc([N+](=O)[O-])cc1)C(=O)c1ccccc1  NCI/ADR-RES ovarian         19.8 µM
6  Cc1ccc2c(c1)C(=O)C(Cc1ccccc1C(=O)O)C2 (stereo unspecified)  NCI/ADR-RES ovarian        > 100 µM

###

- Tested on: A498 renal
- EXPERIMENTAL PROTOCOL: NCI tumour cell line growth inhibition, 48 h
MEASURED QUANTITY: TGI

> print(dat)
                               given.smiles  measured.quantity  endpoint.value
1  COc1cc(/C=C2\[C@H]3c4c(c(OC)c(C)c(OC)c4OC)C[C@@H](C(=O)N2Cc2ccccc2)N3C(=O)OC(C)C)c(OC)c(C)c1OC                TGI        > 100 µM
2      COc1[nH]c(C(Cl)(Cl)Cl)c(Cl)c(=O)c1Cl                TGI        > 100 µM
3  C=C1C(=O)O[C@H]2[C@H]1CC/C(Cn1cc(Cn3ccc4ccccc43)nn1)=C\CC[C@@]1(C)O[C@@H]21                TGI         16.6 µM
4  COc1ccc(CNc2nc3cc(C(F)(F)F)ccc3nc2C(=O)O)cc1OC                TGI         73.2 µM
5  O=[n+]1c2c(n([O-])c3ccccc31)-c1cccc3cccc-2c13                TGI        > 100 µM
6  CS(=O)(=O)c1nc(-c2cc3c(c(S(C)(=O)=O)n2)CCCC3)cc2c1CCCC2                TGI        > 100 µM
7  O=S(=O)(/N=C(\NO)Nc1ccc(Cl)cc1)c1ccc(S(=O)(=O)c2ccccc2)s1                TGI         41.8 µM
